Test: physchem
Conditions: water
MEASURED ENDPOINT: solubility thermodynamic at 30 min (µg/mL)
Give bare numbers, in µg/mL.

Recorded solubility thermodynamic at 30 min of C/C=C/C[C@@H](C)[C@@H](O)[C@H]1C(=O)N[C@@H](CC)C(=O)N(C)CC(=O)N(C)[C@@H](CC(C)C)C(=O)N[C@@H](C(C)C)C(=O)N(C)[C@@H](CC(C)C)C(=O)N[C@@H](C)C(=O)N[C@H](CO)C(=O)N(C)[C@@H](CC(C)C)C(=O)N(C)[C@@H](CC(C)C)C(=O)N(C)[C@@H](C(C)C)C(=O)N1C [[D-serine^8]cyclosporin A, reference compound] , please.
35.1

Consider the additional compound presented here.
For C/C=C/C[C@@H](C)[C@@H](O)[C@H]1C(=O)N[C@@H]([C@@H](C)O)C(=O)N(C)CC(=O)N(C)[C@@H](CC(C)C)C(=O)N[C@@H](C(C)C)C(=O)N(C)[C@@H](CC(C)C)C(=O)N[C@@H](C)C(=O)N[C@H](C)C(=O)N(C)[C@@H](CC(C)C)C(=O)N(C)[C@@H](CC(C)C)C(=O)N(C)[C@@H](C(C)C)C(=O)N1C , what is its reported solubility thermodynamic at 30 min?
29.7

###

Assay: Absorption after oral administration and release of the phosphate group (blood concentration by HPLC)
Assay type: in vivo
Conditions: rat, blood; SD rats, oral 30 mg/kg, 2 hr after administration; read-out: Blood concentration of the administered compound (unchanged)
Method: Each blood sample was centrifuged (10,000 rpm x 5 min.) and the supernatant was applied onto a pretreatment column (Sep-Pack C18 Vac, Waters). After the column was rinsed with distilled water and 40% methanol, elution was carried out in 10% steps from 50% methanol to 100% methanol and 50 µl of the eluate was injected into an HPLC. From the concentration value thus found, the blood concentration was calculated.
I'd be grateful if you could share measured level at 2 h for these entries.
One number for each entry, in ng/mL.

Given C/C=C/C[C@@H](C)[C@@H](O)[C@H]1C(=O)N[C@@H](CC)C(=O)N(C)CC(=O)N(C)[C@@H](CC(C)C)C(=O)N[C@@H](C(C)C)C(=O)N(C)[C@@H](CC(C)C)C(=O)N[C@@H](C)C(=O)N[C@H](COP(=O)(O)O)C(=O)N(C)[C@@H](CC(C)C)C(=O)N(C)[C@@H](CC(C)C)C(=O)N(C)[C@@H](C(C)C)C(=O)N1C [[Phosphono-D-serine^8]cyclosporin A, [phosphono-D-serine^8]cyclosporin A] , state its recorded level at 2 h.
971

---
Which level at 2 h value belongs to C/C=C/C[C@@H](C)[C@@H](O)[C@H]1C(=O)N[C@@H](CC)C(=O)N(C)CC(=O)N(C)[C@@H](CC(C)C)C(=O)N[C@@H](C(C)C)C(=O)N(C)[C@@H](CC(C)C)C(=O)N[C@@H](C)C(=O)N[C@H](CO)C(=O)N(C)[C@@H](CC(C)C)C(=O)N(C)[C@@H](CC(C)C)C(=O)N(C)[C@@H](C(C)C)C(=O)N1C [[D-serine^8]cyclosporin A, reference compound] ?
1920

###

Experiment: Absorption after oral administration and release of the phosphate group (blood concentration by HPLC)
Assay type: in vivo
Conditions: rat, blood; SD rats, oral 30 mg/kg, 8 hr after administration; read-out: Blood concentration of the administered compound (unchanged)
MEASURED ENDPOINT: level at 8 h (µg/mL)
Answers are plain numbers, in µg/mL.

What value of level at 8 h has been recorded for this entry: C/C=C/C[C@@H](C)[C@@H](O)[C@H]1C(=O)N[C@@H](CC)C(=O)N(C)CC(=O)N(C)[C@@H](CC(C)C)C(=O)N[C@@H](C(C)C)C(=O)N(C)[C@@H](CC(C)C)C(=O)N[C@@H](C)C(=O)N[C@H](COP(=O)(O)O)C(=O)N(C)[C@@H](CC(C)C)C(=O)N(C)[C@@H](CC(C)C)C(=O)N(C)[C@@H](C(C)C)C(=O)N1C [[Phosphono-D-serine^8]cyclosporin A, [phosphono-D-serine^8]cyclosporin A]
0.311

We next turn to a different molecule, shown below.
Can you look up the measured level at 8 h of C/C=C/C[C@@H](C)[C@@H](O)[C@H]1C(=O)N[C@@H](CC)C(=O)N(C)CC(=O)N(C)[C@@H](CC(C)C)C(=O)N[C@@H](C(C)C)C(=O)N(C)[C@@H](CC(C)C)C(=O)N[C@@H](C)C(=O)N[C@H](CO)C(=O)N(C)[C@@H](CC(C)C)C(=O)N(C)[C@@H](CC(C)C)C(=O)N(C)[C@@H](C(C)C)C(=O)N1C [[D-serine^8]cyclosporin A, reference compound] for me?
0.533

###

Assay: Absorption after oral administration and release of the phosphate group (blood concentration by HPLC)
Assay type: in vivo
Conditions: rat, blood; SD rats, oral 30 mg/kg, 24 hr after administration; read-out: Blood concentration of the administered compound (unchanged)
MEASURED ENDPOINT: level at 24 h

Entry C/C=C/C[C@@H](C)[C@@H](O)[C@H]1C(=O)N[C@@H](CC)C(=O)N(C)CC(=O)N(C)[C@@H](CC(C)C)C(=O)N[C@@H](C(C)C)C(=O)N(C)[C@@H](CC(C)C)C(=O)N[C@@H](C)C(=O)N[C@H](CO)C(=O)N(C)[C@@H](CC(C)C)C(=O)N(C)[C@@H](CC(C)C)C(=O)N(C)[C@@H](C(C)C)C(=O)N1C [[D-serine^8]cyclosporin A, reference compound] has what level at 24 h?
69 ng/mL

Here's the next entry for you.
Which measured level at 24 h value corresponds to C/C=C/C[C@@H](C)[C@@H](O)[C@H]1C(=O)N[C@@H](CC)C(=O)N(C)CC(=O)N(C)[C@@H](CC(C)C)C(=O)N[C@@H](C(C)C)C(=O)N(C)[C@@H](CC(C)C)C(=O)N[C@@H](C)C(=O)N[C@H](COP(=O)(O)O)C(=O)N(C)[C@@H](CC(C)C)C(=O)N(C)[C@@H](CC(C)C)C(=O)N(C)[C@@H](C(C)C)C(=O)N1C [[Phosphono-D-serine^8]cyclosporin A, [phosphono-D-serine^8]cyclosporin A] ?
31 ng/mL
